Origin of the recorded values: PubChem BioAssay

assay_system: NADPH oxidase 5 (Homo sapiens) (UniProt Q96PH1)
Sequence (Q96PH1 whole entry, looked up): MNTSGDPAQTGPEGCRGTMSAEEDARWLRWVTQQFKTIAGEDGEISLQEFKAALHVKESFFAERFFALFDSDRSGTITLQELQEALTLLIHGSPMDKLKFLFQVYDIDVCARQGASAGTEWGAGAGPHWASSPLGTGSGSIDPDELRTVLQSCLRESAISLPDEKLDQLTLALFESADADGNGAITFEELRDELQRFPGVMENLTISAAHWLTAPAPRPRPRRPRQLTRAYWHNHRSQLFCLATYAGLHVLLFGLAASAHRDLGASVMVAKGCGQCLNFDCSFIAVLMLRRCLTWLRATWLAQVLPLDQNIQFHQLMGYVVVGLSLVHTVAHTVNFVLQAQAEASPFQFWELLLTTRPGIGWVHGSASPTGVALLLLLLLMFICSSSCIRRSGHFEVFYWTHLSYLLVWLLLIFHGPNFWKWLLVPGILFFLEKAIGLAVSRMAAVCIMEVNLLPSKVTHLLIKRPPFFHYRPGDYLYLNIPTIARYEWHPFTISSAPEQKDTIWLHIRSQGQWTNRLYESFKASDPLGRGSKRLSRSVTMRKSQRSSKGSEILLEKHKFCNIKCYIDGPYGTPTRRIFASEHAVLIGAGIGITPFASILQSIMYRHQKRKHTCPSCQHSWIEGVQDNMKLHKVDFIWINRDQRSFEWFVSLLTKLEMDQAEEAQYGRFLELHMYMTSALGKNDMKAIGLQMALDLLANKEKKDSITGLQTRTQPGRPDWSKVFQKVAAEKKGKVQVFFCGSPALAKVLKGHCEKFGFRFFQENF
assay_text: compounds shifting NOX5 Amplex Red fluorescence – cell-based, HEK293-NOX5, NOX inhibitor project, primary screen (AID 1161)
condition_label: HEK293-NOX5, ionomycin, 45 min, higher = more signal
measurement_kind: z-score
Please reply with the number alone, leaving off any unit.

# example entries with known answers
compound=CN(C)CCCCCCNC(=O)[C@@H]1C[C@@H]2C(=O)N[C@@H](Cc3ccccc3)C(=O)N2[C@@H]1c1cccc(OCCO)c1 measurement_kind=z-score value=1.4
compound="[N-]=[N+]=NCc1ccccc1[C@H]1OC(c2ccc(OCCCO)cc2)=N[C@@]1(Cc1ccccc1)C(=O)NCC(O)CO (stereo partly specified)" measurement_kind=z-score value=-0.796
compound=CCCC[C@@H]1C[C@H]1[C@@H](NC(=O)c1ccccc1)c1ccc(-c2ccccc2)cc1 measurement_kind=z-score value=0.666
compound=COc1ccc(C#Cc2ccc3c(c2)[C@]2(C(=O)N3)[C@H](C(=O)N3CCc4cc(OC)c(OC)cc4C3)[C@H]3C(=O)O[C@H](c4ccccc4)[C@H](c4ccccc4)N3[C@@H]2c2ccc(OCCO)cc2)cc1 measurement_kind=z-score value=0.115
compound=COC(=O)[C@@]1(Cc2ccc(OC)cc2)[C@H]2c3cc(C(=O)N4CCCC4)n(CCc4ccccn4)c3C[C@H]2CN1C(=O)c1ccccc1 measurement_kind=z-score value=-3.82
compound="O=C1OCC=C[C@H]2OC34C=CCN(Cc5ccccc5)C(=O)[C@H]3N(CCCO)C(=O)[C@@H]4[C@@H]12 (stereo partly specified)" measurement_kind=z-score value=-1.17

Inquiry: Query (compound): OCCCc1cc[n+](Cc2cccc(OC(F)(F)F)c2)cc1 ; field requested: z-score
Reply text: 0.384

Inquiry: Query (compound): CN(C)CCCC[C@@H]1NC(=O)[C@@H]2C[C@H](C(=O)NCc3ccc(F)cc3)[C@H](c3cccc(OCCO)c3)N2C1=O ; field requested: z-score
Reply text: 1.55

Inquiry: Query (compound): O=P(NCC1(CC2(c3ccccc3)CO2)CC1)(c1ccccc1)c1ccccc1 (stereo unspecified) ; field requested: z-score
Reply text: -2.9

Inquiry: Query (compound): CC(C)C(=C=CC[C@H](O)c1ccccc1OCCO)CCO ; field requested: z-score
Reply text: -0.738

Inquiry: Query (compound): COCC1=C([C@H](O)CCc2ccccc2)[C@H](CO)[C@@H]2C(=O)N(Cc3ccccc3)C(=O)[C@@H]2C1 ; field requested: z-score
Reply text: -0.0312

Inquiry: Query (compound): CCCC[C@@H]1C[C@H]1[C@@H](NC(=O)c1ccccc1)c1ccccc1 ; field requested: z-score
Reply text: 1.98

Inquiry: Query (compound): O=C(NCC(O)CO)[C@]1(CCS(=O)(=O)c2ccccc2)N=C(c2ccc(OCCCO)cc2)O[C@@H]1c1ccccc1 (stereo partly specified) ; field requested: z-score
Reply text: -0.186

Inquiry: Query (compound): CN1C(=O)C2C(C1=O)C1C=C(c3ccc(CO)cc3)C2C(C2CC2)N1Cc1cc2c(cc1Br)OCO2 (stereo unspecified) ; field requested: z-score
Reply text: -0.488

Inquiry: Query (compound): O[C@@H](Cc1ccccc1)[C@@H](/C=C/c1ccccc1)NCc1ccccc1Br ; field requested: z-score
Reply text: -0.921

* * *

assay_system: Streptavidin (Streptomyces avidinii) (UniProt P22629)
Sequence (P22629 whole entry, looked up): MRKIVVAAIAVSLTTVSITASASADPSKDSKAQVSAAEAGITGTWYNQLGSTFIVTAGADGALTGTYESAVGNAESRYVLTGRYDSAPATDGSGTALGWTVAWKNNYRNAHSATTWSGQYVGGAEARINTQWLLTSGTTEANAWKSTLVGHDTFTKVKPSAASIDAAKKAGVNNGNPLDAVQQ
assay_text: compounds binding control protein streptavidin – biophysical, small-molecule microarray, 635/667 nm fluorescence, artefact control for SMM compound annotation, primary screen (AID 1147);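 note: signal reflects streptavidin binding to arrayed compounds as a control protein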
condition_label: higher = more signal
Below, each of the compounds is paired with its reported composite z-score value.
Please reply with the number alone, leaving off any unit.

compound="O=C1OCCC/C=C\\[C@H]2OC34C=CCN(Cn5nnc6ccccc65)C(=O)[C@H]3N(CCCO)C(=O)[C@@H]4C12 (some centres undefined)" assay_system="Streptavidin (Streptomyces avidinii) (UniProt P22629)" value=-1.29
compound=O[C@@H](Cc1ccccc1)[C@@H](/C=C/c1ccccc1)NCc1ccccc1Br assay_system="Streptavidin (Streptomyces avidinii) (UniProt P22629)" value=-0.736
compound="C=CCC(OC(C)=O)[C@@H]1[C@@H](N(Cc2ccc(-c3ccccc3)cc2)C(=O)c2ccc(C)cc2)c2cc(OCCCO)ccc2N1C(=O)c1ccc2ccccc2n1 (some centres undefined)" assay_system="Streptavidin (Streptomyces avidinii) (UniProt P22629)" value=0.105

Inquiry: Requested read-out composite z-score, target or system Streptavidin (Streptomyces avidinii) (UniProt P22629), entry O=C1OCC=C[C@H]2OC34C=CCN(c5ccc6ccccc6c5)C(=O)[C@H]3N(CCO)C(=O)[C@@H]4[C@@H]12 (some centres undefined)
Reply text: -0.74

Inquiry: Requested read-out composite z-score, target or system Streptavidin (Streptomyces avidinii) (UniProt P22629), entry C=CCN1Cc2ccccc2C[C@]2(N=C(c3ccc(OCCCO)cc3)O[C@@H]2c2ccccc2)C1=O
Reply text: -0.138
